All figures here come from ChEMBL document CHEMBL4339242.

- System: RAW264.7
- PROTOCOL: Toxicity in lipopolysaccharide-induced mouse RAW264.7 cells by MTT-based colorimetric assay
- Format: cell-based
ENDPOINT: Activity

In the examples that follow, each entry is paired with its recorded Activity.
Q: Determine from records and report Activity for COc1cc2c(c3c1C(=O)C[C@H](c1ccc(O)cc1)O3)C=CC(C)(CCC=C(C)C)O2 (stereo not given in full)
Ans: Non-Toxic

Q: Determine from records and report Activity for COc1cc2c(c3c1C(=O)C[C@H](c1ccccc1)O3)C=CC(C)(CCC=C(C)C)O2 (stereo not given in full)
Ans: Non-Toxic

Q: Determine from records and report Activity for COc1cc2c(c(O)c1C(=O)/C=C/c1ccccc1)C=CC(C)(CC/C=C(\C)CCC=C(C)C)O2 (stereo not given)
Ans: Non-Toxic

Q: Determine from records and report Activity for COc1cc2c(c3c1C(=O)C[C@@H](c1ccc(O)cc1)O3)C=CC(C)(CCC=C(C)C)O2 (stereo not given in full)
Ans: Non-Toxic

Batch: Activity for all items listed.
1. COc1cc2c(c3c1C(=O)C[C@H](c1ccccc1)O3)C=CC(C)(CC/C=C(\C)CCC=C(C)C)O2 (stereo not given in full)
2. COc1cc2c(c3c1C(=O)C[C@@H](c1ccccc1)O3)C=CC(C)(CC/C=C(\C)CCC=C(C)C)O2 (stereo not given in full)
3. COc1cc2c(c(O)c1C(=O)/C=C/c1ccc(O)cc1)C=CC(C)(CC/C=C(\C)CCC=C(C)C)O2 (stereo not given)
4. COc1cc2c(c3c1C(=O)C[C@H](c1ccc(O)cc1)O3)C=CC(C)(CC/C=C(\C)CCC=C(C)C)O2 (stereo not given in full)
5. COc1cc2c(c3c1C(=O)C[C@@H](c1ccc(O)cc1)O3)C=CC(C)(CC/C=C(\C)CCC=C(C)C)O2 (stereo not given in full)
6. COc1cc2c(c3c1C(=O)C[C@@H](c1ccccc1)O3)C=CC(C)(CCC=C(C)C)O2 (stereo not given in full)

Ans:
1: Non-Toxic; 2: Non-Toxic; 3: Non-Toxic; 4: Non-Toxic; 5: Non-Toxic; 6: Non-Toxic
